- METHOD: gradient 5% acetonitrile 3 min, to 50% in 2 min, to 85% in 15 min, held 3 min, 100 µL/min
- REPORTED CONDITIONS: column: Zorbax Extend-C18 2.1 x 50 mm; eluents: water / acetonitrile, 0.1% formic acid
VALUE TYPE: RP-LC retention time (s)

{"MOLECULE": "O=C(Nc1c(F)cccc1F)N1CCc2nc(-c3ccc(F)cc3)ncc2C1", "VALUE TYPE": "RP-LC retention time", "ASSAY RESULT": 932}
{"MOLECULE": "COc1ccccc1C(=O)Nc1cccc(Cl)c1", "VALUE TYPE": "RP-LC retention time", "ASSAY RESULT": 964}
{"MOLECULE": "CCN1CCN(CCCNC(=O)C2CCCN(C(=O)c3[nH]c(C)c(C(=O)OC(C)C)c3C)C2)CC1 (stereo not given)", "VALUE TYPE": "RP-LC retention time", "ASSAY RESULT": 579}
{"MOLECULE": "CCc1ccc(-c2ccc(=O)n(Cc3nc(-c4cccs4)no3)n2)cc1", "VALUE TYPE": "RP-LC retention time", "ASSAY RESULT": 1060}
{"MOLECULE": "O=S(=O)(Cc1ccccc1F)N1CCc2nnc(C3CC3)n2CC1", "VALUE TYPE": "RP-LC retention time", "ASSAY RESULT": 626}
{"MOLECULE": "Cc1nnc(-c2cc(NS(C)(=O)=O)c(C)s2)o1", "VALUE TYPE": "RP-LC retention time", "ASSAY RESULT": 697}
{"MOLECULE": "COc1ccccc1NC(=O)N1CCCC1c1nc(-c2ccc(F)cc2F)no1 (stereo not given)", "VALUE TYPE": "RP-LC retention time", "ASSAY RESULT": 1000}
{"MOLECULE": "CCCc1nc(-c2cc3ccccc3nc2N2CCN(C)CC2)no1", "VALUE TYPE": "RP-LC retention time", "ASSAY RESULT": 671}
{"MOLECULE": "Cc1c2cnn(-c3ccccc3)c(=O)c2c(C)n1CCCC(=O)N1CCN(c2ccccn2)CC1", "VALUE TYPE": "RP-LC retention time", "ASSAY RESULT": 611}
{"MOLECULE": "CC(C(=O)NCCCN1CCN(C)CC1)n1c(=O)c(C(F)(F)F)nc2ccccc21 (stereo not given)", "VALUE TYPE": "RP-LC retention time", "ASSAY RESULT": 603}

###

- METHOD: gradient 5% acetonitrile 3 min, to 50% in 2 min, to 85% in 15 min, held 3 min, 100 µL/min
- REPORTED CONDITIONS: column: Zorbax Extend-C18 2.1 x 50 mm; eluents: water / acetonitrile, 0.1% formic acid
Labelling: RP-LC retention time reported below 900 s becomes Met; at or above becomes Not met.

{"COMPOUND": "O=c1c(NCCc2ccccn2)nc2ccncc2n1Cc1ccccc1", "GROUP": "Met"}
{"COMPOUND": "Cc1onc(-c2ccccc2Cl)c1C(=O)NCC1(c2cccs2)CC1", "GROUP": "Not met"}
{"COMPOUND": "O=c1n(Cc2ccc(F)cc2)nc2c(S(=O)(=O)N3CCc4ccccc4C3)cccn12", "GROUP": "Not met"}
{"COMPOUND": "CCCN1C(=O)C(C)(C(=O)NCc2ccccc2Cl)Oc2cccnc21 (stereo not given)", "GROUP": "Not met"}
{"COMPOUND": "O=C(Cc1ccsc1)Nc1ccc2c(N3CCOCC3)ncnc2c1", "GROUP": "Met"}
